Ki by entry:
Target: UniProt P33535
Sequence (P33535 whole entry, looked up): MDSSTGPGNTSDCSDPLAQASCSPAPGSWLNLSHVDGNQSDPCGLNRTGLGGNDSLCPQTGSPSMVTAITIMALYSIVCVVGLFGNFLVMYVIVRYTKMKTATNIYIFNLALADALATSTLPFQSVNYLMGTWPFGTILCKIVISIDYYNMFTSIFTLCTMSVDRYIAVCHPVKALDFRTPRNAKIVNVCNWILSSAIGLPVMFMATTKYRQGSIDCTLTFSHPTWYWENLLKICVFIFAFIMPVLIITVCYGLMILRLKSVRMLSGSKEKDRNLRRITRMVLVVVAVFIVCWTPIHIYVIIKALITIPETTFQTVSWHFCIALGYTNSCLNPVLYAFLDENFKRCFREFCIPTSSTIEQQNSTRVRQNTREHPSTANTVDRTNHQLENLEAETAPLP
Test: Binding affinity was determined by displacement of [3H]- DAMGO at Opioid receptor mu 1 in rat brain membrane homogenates
Format: cell membranes
Where a SMILES comes first, the peptide text is derived from it. Bridges are numbered along the chain shown (N, C = ends). [ ]: non-standard residue; d: D form. 2Nal = N[C@@H](Cc1ccc2ccccc2c1)C(=O)O; Dmt = Cc1cc(O)cc(C)c1C[C@H](N)C(=O)O; dOrn = NCCC[C@@H](N)C(=O)O

Solved entries:
>>> result("C[C@@H](O)[C@@H]1NC(=O)[C@H](Cc2ccc(O)cc2)NC(=O)[C@@H](Cc2c[nH]c3ccccc23)NC(=O)[C@H](Cc2ccc3ccccc3c2)NC(=O)[C@@H]2CCCN2C(=O)[C@H](Cc2ccccc2)NC1=O")
"> 10000 nM"
>>> result("Cc1cc(O)cc(C)c1CCC(=O)N[C@@H]1CCCNC(=O)CNC(=O)[C@H]2CCCN2C(=O)[C@H](Cc2ccc3ccccc3c2)NC1=O")
"450 nM"
>>> result("C[C@@H](O)[C@@H]1NC(=O)[C@H](Cc2ccc(O)cc2)NC(=O)[C@@H](Cc2c[nH]c3ccccc23)NC(=O)[C@H](Cc2ccccc2)NC(=O)[C@@H]2CCCN2C(=O)[C@H](Cc2ccccc2)NC1=O (cyclo(FPF[dW]YT))")
"> 10000 nM"
>>> result("Cc1cc(O)cc(C)c1C[C@H](NC=O)C(=O)N[C@@H]1CCCNC(=O)CNC(=O)[C@H]2CCCN2C(=O)[C@H](Cc2ccc3ccccc3c2)NC1=O")
"218 nM"
>>> result("C[C@@H](O)[C@@H]1NC(=O)[C@H](Cc2ccc(O)cc2)NC(=O)[C@@H](Cc2c[nH]c3ccccc23)NC(=O)[C@H](Cc2cccc3ccccc23)NC(=O)[C@@H]2CCCN2C(=O)[C@H](Cc2ccccc2)NC1=O")
"> 10000 nM"
>>> result("C[C@@H](O)[C@@H]1NC(=O)[C@H](CC2CCCCC2)NC(=O)[C@@H](Cc2c[nH]c3ccccc23)NC(=O)[C@H](Cc2ccccc2)NC(=O)[C@@H]2CCCN2C(=O)[C@H](Cc2ccccc2)NC1=O")
"> 10000 nM"

Test system UniProt P33535; read-out Ki; what value for Cc1cc(O)cc(C)c1C[C@H](N)C(=O)N[C@@H]1CCCNC(=O)CNC(=O)[C@H]2CCCN2C(=O)[C@H](Cc2ccc3ccccc3c2)NC1=O (H-[Dmt][dOrn][2Nal][dP]G; lactam 2-C) ? 0.476 nM
